Cited source: patent US6727264B1

- target or test system: rat MCH-1 (Rattus norvegicus)
- Sequence (P97639 whole entry): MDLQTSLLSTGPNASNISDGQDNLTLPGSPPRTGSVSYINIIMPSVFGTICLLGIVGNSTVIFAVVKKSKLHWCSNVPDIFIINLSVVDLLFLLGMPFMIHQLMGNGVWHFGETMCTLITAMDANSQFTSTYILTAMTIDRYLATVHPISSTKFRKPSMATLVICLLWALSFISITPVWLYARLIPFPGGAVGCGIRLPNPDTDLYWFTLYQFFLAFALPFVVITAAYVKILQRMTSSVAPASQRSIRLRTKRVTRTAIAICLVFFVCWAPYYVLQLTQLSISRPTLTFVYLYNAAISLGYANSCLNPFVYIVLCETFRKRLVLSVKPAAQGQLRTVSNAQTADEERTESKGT
- assay info: Radioligand binding assay at cloned rat MCH1 receptor ([3H] Compound A)
- Parameters: host or cells: Peak rapid 293 (Peakr293) cells, transient calcium phosphate transfection, membranes
- settings: cloned rat MCH1 receptor, membranes from Peakr293 cells, 0.08 nM [3H] Compound A; read-out: Ki (nM) rMCH1
Values of Ki strictly less than 80 nM map to YES, and values of at least 80 nM map to NO.

- compound: "COc1ccc(C(CCN2CCC(c3cccc(NC(=O)C(C)C)c3)CC2)Oc2ccccc2)cc1 (stereo not shown)"
  assigned class: "NO"

Now examine the next entry.
**Q:** Does the reported Ki of the following compound sit strictly below 80 nM? CC(C)C(=O)Nc1cccc(C2CCN(C[C@H](C)COc3ccccc3Cl)CC2)c1
**A:** NO
